All values here come from patent US20160304552A1.

- system: T7 RNA polymerase (Escherichia phage T7, UniProt P00573)
- Sequence (P00573 whole entry): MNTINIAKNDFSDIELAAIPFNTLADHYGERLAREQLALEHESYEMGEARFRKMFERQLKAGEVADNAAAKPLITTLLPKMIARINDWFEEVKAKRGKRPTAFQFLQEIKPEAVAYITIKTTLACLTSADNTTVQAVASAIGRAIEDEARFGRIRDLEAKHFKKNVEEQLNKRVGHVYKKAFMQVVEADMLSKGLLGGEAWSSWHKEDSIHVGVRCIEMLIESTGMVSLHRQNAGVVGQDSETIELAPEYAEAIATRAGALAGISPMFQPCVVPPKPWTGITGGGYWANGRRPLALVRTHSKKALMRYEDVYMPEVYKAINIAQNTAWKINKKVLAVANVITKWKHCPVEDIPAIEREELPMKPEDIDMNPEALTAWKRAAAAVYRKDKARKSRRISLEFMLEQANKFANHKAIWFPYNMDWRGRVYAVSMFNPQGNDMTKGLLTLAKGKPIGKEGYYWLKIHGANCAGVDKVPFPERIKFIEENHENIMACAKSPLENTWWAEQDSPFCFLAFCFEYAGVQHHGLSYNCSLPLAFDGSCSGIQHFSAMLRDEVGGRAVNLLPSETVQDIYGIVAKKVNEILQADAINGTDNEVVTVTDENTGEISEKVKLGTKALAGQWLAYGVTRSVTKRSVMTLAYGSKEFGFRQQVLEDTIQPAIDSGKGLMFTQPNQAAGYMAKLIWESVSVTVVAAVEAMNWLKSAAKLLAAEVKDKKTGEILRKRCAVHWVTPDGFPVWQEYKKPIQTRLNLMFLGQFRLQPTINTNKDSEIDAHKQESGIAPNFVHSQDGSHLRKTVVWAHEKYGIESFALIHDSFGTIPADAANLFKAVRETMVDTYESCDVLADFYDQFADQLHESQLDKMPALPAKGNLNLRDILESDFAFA
- method_notes: In vitro transcription yields of modified mRNA
- Assay type: biochemical
- applied_conditions: EPO mRNA made with the modified NTP(s)
Recorded EPO In Vitro Transcription yield for the following compounds
The answer is to be given in mg; state only the numeric part.

compound	EPO In Vitro Transcription yield (mg)
COC(=O)Cc1cn([C@@H]2O[C@H](COP(=O)(O)OP(=O)(O)OP(=O)(O)O)C(O)C2O)c(=O)[nH]c1=O (stereo in doubt)	0.6432
O=c1ccn([C@@H]2O[C@H](COP(=O)(O)OP(=O)(O)OP(=O)(O)O)C(O)C2O)c(=S)[nH]1 (stereo in doubt)	0.3630
Nc1ccn([C@@H]2O[C@H](COP(O)(=S)OP(=O)(O)OP(=O)(O)O)C(O)C2O)c(=O)n1 (stereo in doubt)	0.2669
CNCc1cn([C@@H]2O[C@H](COP(=O)(O)OP(=O)(O)OP(=O)(O)O)C(O)C2O)c(=O)[nH]c1=O (stereo partly drawn)	0.3060
Nc1nc(=O)n([C@@H]2O[C@H](COP(=O)(O)OP(=O)(O)OP(=O)(O)O)C(O)C2O)cc1CO (stereo in doubt) [00901014005 (350), 5-Hydroxymethyl-CTP]	0.7778
COC(=O)COc1cn([C@@H]2O[C@H](COP(=O)(O)OP(=O)(O)OP(=O)(O)O)C(O)C2O)c(=O)[nH]c1=O (stereo in doubt)	0.3859

I am curious: what EPO In Vitro Transcription yield value has been reported for O=c1[nH]c(=O)n([C@@H]2O[C@H](COP(=O)(O)OP(=O)(O)OP(=O)(O)O)C(O)C2O)cc1C(F)(F)F (stereo partly drawn) ?
0.3830

Look up EPO In Vitro Transcription yield: CCCn1cc([C@@H]2O[C@H](COP(=O)(O)OP(=O)(O)OP(=O)(O)O)C(O)C2O)c(=O)[nH]c1=O (stereo in doubt)
0.9920

State the recorded EPO In Vitro Transcription yield for this entry: O=c1[nH]c(=S)ccn1[C@@H]1O[C@H](COP(=O)(O)OP(=O)(O)OP(=O)(O)O)C(O)C1O (stereo partly drawn)
0.0416

Which EPO In Vitro Transcription yield reading was recorded for the compound CC(=O)Nc1ccn([C@@H]2O[C@H](COP(=O)(O)OP(=O)(O)OP(=O)(O)O)C(O)C2O)c(=O)n1 (stereo in doubt) ?
0.4351

Which measured EPO In Vitro Transcription yield value corresponds to Nc1nc(=O)n([C@@H]2O[C@H](COP(=O)(O)OP(=O)(O)OP(=O)(O)O)C(O)C2O)cc1Br (stereo in doubt) ?
0.3454

Param item = NC/C=C/c1cn([C@@H]2O[C@H](COP(=O)(O)OP(=O)(O)OP(=O)(O)O)C(O)C2O)c(=O)nc1N (stereo in doubt) ; retrieve measured EPO In Vitro Transcription yield.
0.4943
